- target.under.test: GABARAPL2, P60520
- Sequence (P60520 whole entry, the tested form may be a part): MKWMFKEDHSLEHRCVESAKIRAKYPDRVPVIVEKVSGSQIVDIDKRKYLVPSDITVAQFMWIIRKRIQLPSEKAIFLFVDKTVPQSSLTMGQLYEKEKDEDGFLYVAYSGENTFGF
- assay.remarks: median log2 fold change of GCK-ALFA target abundance (FLAG IP / Myc IP barcode read proportion) (log2 ratio); each designed protein is fused to an ALFA-tag nanobody in HEK293 cells to bring the named protein to FLAG-tagged glucokinase (GCK); Myc marks an untargeted standard; higher = target protein stabilised (more abundant)
- condition.summary: target protein: 3xFLAG-MCP-GCK-ALFA reporter; HEK293 landing pad (RPLP)
# reported median log2 fold change; entries follow

{"columns": ["binder", "median log2 fold change"],
 "data": [
  ["GBRAPL2_83_7410 (protein) MEVLLELELTVTYKGNEEDKEKILDMLLEAQDKLRELGATAVVAEKLENGVYTFSLYAIYRGPREGAEKVRKTLEEFAEKIKKEFPEAKVEVKVLEEREL", -0.0517],
  ["GBRAPL2_53_7364 (protein) MYLVEVEHPDKEKLLKAAEEIAKIAKKHNLKITVIFVKEDGTVERYTANAEEALKIAKEWIEKGDVILEVKLPDSLEEVKEEIIDAAAKNGAVVSVEELE", 0.221],
  ["GBRAPL2_128_7283 (protein) MKLVEIDITVKNEEEYKLAKEVLKEIAEKGSPAVAKLADAALDMLESEKEEGFKDGVTVADILTEEEAEELKKLYEELAKKYGEEKVKKIIELTVDDIPP", -0.458],
  ["GBRAPL2_106_7267 (protein) EKLKELLKQLEELAKKIEELLKKADENDEELIDETLELLNEATRQAIEAGLDEVAALLADAFNHVFEAKENPEERKENLEEALKDVKEAIKLVKKKIKEA", 0.226],
  ["GBRAPL2_0_7217 (protein) MEELIEKAKELSVEEAAELFVEEVKRLVESGKATDEELMELVEKAAEVLEEKMKESKDEEDEDIALEAADRIREILAEKDPRLAAYAYSEIGAGIMEASS", -0.0345],
  ["GBRAPL2_53_7348 (protein) MYVVEIAHPDRDVLAAAIEAVFDLIEEAGVEAEVTVTLEDGTVIKLEGPISEVKERAVALAKETDVLVEIKLPDEAEEVVEELEDIALEKGATVSVEKLE", 0.152],
  ["GBRAPL2_63_7398 (protein) MLAKKVLEALLENAILPLDLAEELEKALETLKTEEELRETLVKAILELNPELTEEEAEEIVDLLIELAKKSEELLKEGVRALSTLDNETAKEYLKKLVAE", 0.0619],
  ["GBRAPL2_151_7303 (protein) GWKEEAIKALEEAAKAAEEAAKALSPEHELERTELELLAGGFEADAILIEETDDEEEIKRLVKEAAEMAKDAAKLAKKLGLEKEAKKLEKIAEKLKKLAE", 0.179]
]}

Then this binder:
// lookup median log2 fold change for GBRAPL2_0_7239 (protein) MEELLKELLSLSLEEAKKKIKEKTEEAVKLIRKDPEKGLKYAEELVEVFAEVVVERKNEELEEVVDEATDRLVEEAAKIDPNEAAYLAAIRGSAIAEVEL
0.0745
